assay: Test 2: Pharmacokinetic test in rats; type: in vivo, rat; conditions: rat, blood, iv, 10 mg/kg, Rat-3, i.v. 10 mg/kg, 45 min; read-out: Blood concentration
Recorded endpoint: concentration at 0.75 h (ng/mL)
One number for each entry, in ng/mL.

Problem: Need concentration at 0.75 h, item CN(C(=O)[C@H](Cc1ccc(C(=N)NN)cc1)NS(=O)(=O)c1ccc2ccccc2c1)C1CCCC1
Result: 398

----------
experiment: Test 2: Pharmacokinetic test in dogs; assay type: in vivo, dog; settings: dog, blood, po, 10 mg/kg, dogs, oral 10 mg/kg, 10 min; read-out: Blood concentration, Average(+error)
Recorded endpoint: concentration at 10 min (ng/mL)
Numbers only, in ng/mL.

Problem: So what does the record say about concentration at 10 min for CN(C(=O)[C@H](Cc1ccc(C(=N)NN)cc1)NS(=O)(=O)c1ccc2ccccc2c1)C1CCCC1 ?
Result: 702
